# system-tested: T1, human TGFβ3 (human, UniProt P10600 301-412)
# T1 sequence: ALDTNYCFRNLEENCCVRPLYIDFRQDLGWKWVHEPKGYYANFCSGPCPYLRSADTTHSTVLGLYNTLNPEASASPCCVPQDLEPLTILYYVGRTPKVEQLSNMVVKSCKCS
# experimental-protocol: Biacore off-rate vs wt GC1008, 50 nM
measured-endpoint: kd var/kd wt

Challenge: Entry Y27M (antibody, V domains shown, GC1008 IgG4 variant) VH: QVQLVQSGAEVKKPGSSVKVSCKASGMTFSSNVISWVRQAPGQGLEWMGGVIPIVDIANYAQRFKGRVTITADESTSTTYMELSSLRSEDTAVYYCASTLGLVLDAMDYWGQGTLVTVSS VL: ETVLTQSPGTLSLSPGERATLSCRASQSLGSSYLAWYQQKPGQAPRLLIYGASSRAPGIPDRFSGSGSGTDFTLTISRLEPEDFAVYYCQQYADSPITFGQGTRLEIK has what kd var/kd wt?
Response given: 1.3

Shifting focus to the binder that follows.
Challenge: # query: kd var/kd wt of entry D56C (antibody, V domains shown, GC1008 IgG4 variant) VH: QVQLVQSGAEVKKPGSSVKVSCKASGYTFSSNVISWVRQAPGQGLEWMGGVIPIVCIANYAQRFKGRVTITADESTSTTYMELSSLRSEDTAVYYCASTLGLVLDAMDYWGQGTLVTVSS VL: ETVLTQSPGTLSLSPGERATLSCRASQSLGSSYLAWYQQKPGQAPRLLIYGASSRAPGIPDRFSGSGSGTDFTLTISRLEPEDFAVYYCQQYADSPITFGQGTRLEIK
Response given: 0.8
